These data points were gathered from paper PMC10165273.

Biological target: MRGPRX4 (Homo sapiens, UniProt Q96LA9)
Construct: expressed in transfected cells; host or cells: HEK293T
Sequence (Q96LA9 whole entry): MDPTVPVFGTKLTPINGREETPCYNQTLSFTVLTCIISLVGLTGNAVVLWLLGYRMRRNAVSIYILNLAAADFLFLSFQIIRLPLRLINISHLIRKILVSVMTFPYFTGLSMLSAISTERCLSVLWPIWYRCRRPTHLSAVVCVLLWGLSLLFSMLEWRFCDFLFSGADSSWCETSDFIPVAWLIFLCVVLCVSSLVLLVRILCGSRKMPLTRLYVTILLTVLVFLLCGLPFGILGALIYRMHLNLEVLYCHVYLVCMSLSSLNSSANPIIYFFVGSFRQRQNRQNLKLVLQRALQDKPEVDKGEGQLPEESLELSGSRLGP
Assay: IP1 accumulation HTRF assay, MRGPRX4
Type: cell-based
Conditions: Tet-On MRGPRX4 1pg/cell, Dox 13 ng/mL (Fig. S5B); read-out: IP1 EC50
property_measured: pEC50
Quick note: pEC50 values are minus log10 of concentrations in mol/L.

Looking for the measured pEC50 of CC(C)[C@H]1CC[C@H](C(=O)N[C@H](Cc2ccccc2)C(=O)O)CC1 [Nateglinide] , can you help?
4.72

====

Molecular target: MRGPRX4 (Homo sapiens)
Construct: expressed in transfected cells; host or cells: HEK293T
Assay: IP1 accumulation HTRF assay, MRGPRX4
Type: cell-based
Details: Tet-On MRGPRX4 2pg/cell, Dox 3300 ng/mL (Fig. S5A); read-out: IP1 EC50
property_measured: EC50 (µM)
Give the quantity in µM, number only.

Looking for the measured EC50 of CC(C)[C@H]1CC[C@H](C(=O)N[C@H](Cc2ccccc2)C(=O)O)CC1 [Nateglinide] , can you help?
6.36
